Assay: soluble fraction after stress (log2 fold change); higher = more stays soluble; pooled small domains, quantitative proteomics;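 further: 20 min heating vs room temperature control held 20 min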
Settings: stress: 75 degC
For each of the sequences below, state its soluble fraction (log2).
One number for each entry.

# count of solved cases: 4
In [3]: df
Out[3]:
                              item_sequence     val
0  HMDTAGSVAIVSKSVIENGFGEIKYKGTYFKAQSDVYIPKDQMVKVIGKGDEQGSFLIVEKLN  0.0706
1  HMFAVPAPEVDDILSEKKVDVLLLGPQVRYLLEQFTEKLKDKNIPIGVIPMVDYGMMNGSKVLALAEELIG   0.131
2  HMVIANADVRAKFSKGKDSFVKYYFKEKVLKDGFTEEVKNNIVQALFYLQIVTRIDGESGVLIIDY   0.123
3  HMNSKSFIFHIEDEEGIRLDVFLADNLPDVSRSYVQKLIDEEHVKVNGQSAKSRLKTVSGMEITVDVPAPK   -0.56

Could you report soluble fraction (log2) for every entry in the following list?
1. HMSMEKNWVPSEDVIEILTRAGMNENFIRELIPEFIIYWSERKDVLISYDSKFIEHARLKWAQHNAE
2. HMGIVVDGTMTLEGVAERYGMSVGELARVIGVPPEYSNERLGRLRKSYEFEMDDIRIYIIQKQ
3. HMANKLTSTNLAKQHKMGLSEMYAELMNSGYLIEKDGKYELTPLGISIGGESKPNRYKKGEFYFLWPSDIS

Data returned:
0.454
-1.54
-0.618

The recorded soluble fraction (log2) for entry HMERAPAYPDGLTQREVEVLRLIASGKTDREIAEELFIGVRTVSTHVGNILNKTNSANRTEAASYANQQGL equals -0.0632
